These data points were gathered from patent US12729192B2.

Target System: CDK1 (Homo sapiens)
Construct: purchased Carna Biosciences, Inc
Sequence (P06493 whole entry): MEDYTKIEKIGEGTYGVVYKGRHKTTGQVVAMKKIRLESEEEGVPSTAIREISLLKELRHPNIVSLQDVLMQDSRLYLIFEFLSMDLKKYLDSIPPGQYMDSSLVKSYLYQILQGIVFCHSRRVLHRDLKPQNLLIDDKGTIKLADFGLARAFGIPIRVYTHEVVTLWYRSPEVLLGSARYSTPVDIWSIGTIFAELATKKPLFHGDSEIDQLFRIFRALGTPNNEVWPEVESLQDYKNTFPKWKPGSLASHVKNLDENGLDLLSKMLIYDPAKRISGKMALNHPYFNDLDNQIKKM
Sequence (P14635 whole entry partner): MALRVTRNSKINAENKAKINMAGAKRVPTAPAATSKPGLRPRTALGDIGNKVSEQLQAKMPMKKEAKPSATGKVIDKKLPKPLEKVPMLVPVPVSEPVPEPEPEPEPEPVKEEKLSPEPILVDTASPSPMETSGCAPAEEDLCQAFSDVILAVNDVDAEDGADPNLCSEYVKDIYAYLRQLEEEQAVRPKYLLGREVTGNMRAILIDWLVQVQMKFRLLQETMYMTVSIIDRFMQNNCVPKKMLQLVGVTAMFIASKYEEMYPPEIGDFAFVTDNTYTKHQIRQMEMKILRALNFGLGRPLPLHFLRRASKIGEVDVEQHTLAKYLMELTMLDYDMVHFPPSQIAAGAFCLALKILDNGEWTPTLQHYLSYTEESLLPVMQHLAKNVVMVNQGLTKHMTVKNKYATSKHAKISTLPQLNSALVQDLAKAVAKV
Experiment Notes: CDK1 kinase activity inhibition (ADP-Glo)
Format: biochemical
Condition Set: 50 μM ATP, 2 h at room temperature
Readout Type: IC50 (nM)

>>> observed_result("COC(=O)c1ccnc(Nc2ccc(C)c(C(=O)N3CC(F)(F)CC[C@@H]3CNC(C)=O)n2)c1")
3750
>>> observed_result("Cc1ccc(Nc2cc(OC(F)(F)F)ccn2)nc1C(=O)N1CC(F)(F)CC[C@@H]1CN")
261
>>> observed_result("CC(=O)NC[C@H]1CCC(F)(F)CN1C(=O)c1nc(Nc2cc(C)ccn2)ccc1C")
8730
>>> observed_result("CC(=O)NC[C@H]1CCC(F)(F)CN1C(=O)c1nc(Nc2cc(C3CC(F)(F)C3)[nH]n2)ccc1C")
503
>>> observed_result("CC(=O)NC[C@H]1CCC(F)(F)CN1C(=O)c1nc(Nc2cc([N+](=O)[O-])ccn2)ccc1C")
106
